Tested on: Pseudomonas aeruginosa
Assay notes: Activity of Pseudomonas aeruginosa strain PS 297 metallo-beta-lactamase IMP-1 expressed in Escherichia coli BL21(DE3) assessed as substrate hydrolysis using 100 uM nitrocefin
Labelling field: enter yes if recorded kcat is less than 8 s⁻¹. Enter no if it equals or exceeds that cut-off.

C[C@@H](O)[C@H]1C(=O)N2C(C(=O)O)=C(SCCNC=N)C[C@H]12 [IMIPENEM ANHYDROUS]
no
CO/N=C(\C(=O)N[C@@H]1C(=O)N2C(C(=O)O)=C(COC(C)=O)CS[C@H]12)c1csc(N)n1 [CEFOTAXIME]
yes
CC1(C)S[C@@H]2[C@H](NC(=O)[C@H](N)c3ccccc3)C(=O)N2[C@H]1C(=O)O [AMPICILLIN]
no

Report whether reported kcat is lower than 8 s⁻¹ (strictly) for O=C(Cc1cccs1)N[C@@H]1C(=O)N2C(C(=O)O)=C(/C=C/c3ccc([N+](=O)[O-])cc3[N+](=O)[O-])CS[C@H]12
no

Request: C[C@H]1[C@H](NC(=O)/C(=N\OC(C)(C)C(=O)O)c2csc(N)n2)C(=O)N1S(=O)(=O)O [AZTREONAM]
yes

Request: CC1(C)S[C@@H]2[C@H](NC(=O)[C@H](C(=O)O)c3ccsc3)C(=O)N2[C@H]1C(=O)O [TICARCILLIN]
yes
